# assay_system: Bifunctional epoxide hydrolase 2 (Homo sapiens, UniProt P34913)
# Sequence (P34913 whole entry): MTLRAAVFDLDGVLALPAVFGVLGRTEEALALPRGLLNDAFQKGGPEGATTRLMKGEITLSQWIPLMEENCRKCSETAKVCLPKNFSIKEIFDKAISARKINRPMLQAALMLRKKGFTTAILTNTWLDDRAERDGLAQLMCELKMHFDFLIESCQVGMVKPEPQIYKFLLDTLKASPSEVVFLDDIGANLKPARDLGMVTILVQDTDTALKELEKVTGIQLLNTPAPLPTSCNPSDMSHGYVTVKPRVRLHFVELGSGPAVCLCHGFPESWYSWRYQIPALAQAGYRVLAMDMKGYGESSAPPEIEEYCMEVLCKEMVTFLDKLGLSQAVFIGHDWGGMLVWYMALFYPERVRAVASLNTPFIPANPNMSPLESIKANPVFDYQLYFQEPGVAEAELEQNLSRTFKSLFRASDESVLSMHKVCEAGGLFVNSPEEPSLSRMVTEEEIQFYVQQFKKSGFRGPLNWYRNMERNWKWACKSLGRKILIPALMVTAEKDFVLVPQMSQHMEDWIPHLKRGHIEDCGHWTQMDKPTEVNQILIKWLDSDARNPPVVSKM
# experimental_details: Inhibitory activity against human soluble epoxide hydrolase
pIC50: −log10 of the molar value.
Would you mind labelling by pIC50? At or over 6 is t, under is f.

> print(dat)
                              given.smiles  group.label
1           CC(C)(C)OC(=O)CNC(=O)NC1CCCCC1            f
2               CCCCCCCCCCCCNC(=O)NC1CCCC1            t
3  O=C(Nc1ccc(Cl)c(Cl)c1)Nc1ccc(Cl)c(Cl)c1            t

Inquiry: Decide: pIC50 of `CN(C(=O)NC1CCCCC1)c1ccccc1` >= 6?
Reply text: f

Inquiry: Could you please find out whether `CCCCCCCCCCCCNC(=O)NCC(C)(C)C(C)(C)C` has pIC50 that meets 6 or exceeds it?
Reply text: f

====

# assay_system: Bifunctional epoxide hydrolase 2 (Mus musculus)
# Sequence (P34914 whole entry): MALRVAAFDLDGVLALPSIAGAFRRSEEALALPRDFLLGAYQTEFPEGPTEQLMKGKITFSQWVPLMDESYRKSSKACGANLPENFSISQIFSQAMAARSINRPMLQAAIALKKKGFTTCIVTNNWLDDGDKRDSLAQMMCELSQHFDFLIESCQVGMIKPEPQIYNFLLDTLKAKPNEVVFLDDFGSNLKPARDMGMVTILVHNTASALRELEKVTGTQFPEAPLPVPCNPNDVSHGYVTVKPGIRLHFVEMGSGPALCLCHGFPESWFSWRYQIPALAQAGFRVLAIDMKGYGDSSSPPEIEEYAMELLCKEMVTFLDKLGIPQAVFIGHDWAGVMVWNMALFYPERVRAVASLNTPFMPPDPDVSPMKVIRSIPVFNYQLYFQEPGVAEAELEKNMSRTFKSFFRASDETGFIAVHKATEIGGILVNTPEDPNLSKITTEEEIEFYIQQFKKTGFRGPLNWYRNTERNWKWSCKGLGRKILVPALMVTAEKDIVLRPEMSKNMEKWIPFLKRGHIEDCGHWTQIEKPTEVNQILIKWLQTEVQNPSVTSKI
# experimental_details: Inhibitory activity against murine soluble epoxide hydrolase
Here the recorded pIC50 is given for each entry.
By convention, pIC50 is the negative base-10 log of a molar concentration.

> print(dat)
                          given.smiles                              assay.system  measured.metric  value.observed
1           CCCCCCCCCCCCNC(=O)NC1CCCC1  Bifunctional epoxide hydrolase 2 (Mus musculus)            pIC50            7.00
2           CN(C(=O)NC1CCCCC1)c1ccccc1  Bifunctional epoxide hydrolase 2 (Mus musculus)            pIC50            3.71
3  CCCCCCCCCCCCNC(=O)NCC(C)(C)C(C)(C)C  Bifunctional epoxide hydrolase 2 (Mus musculus)            pIC50            6.89
4       CC(C)(C)OC(=O)CNC(=O)NC1CCCCC1  Bifunctional epoxide hydrolase 2 (Mus musculus)            pIC50            5.36

Inquiry: What pIC50 appears in the records for this molecule with Bifunctional epoxide hydrolase 2 (Mus musculus)? `CCCCCCNC(=O)NC`
Reply text: 3.65

Numbers sourced from BindingDB's records for doi:10.1021/jm020269o.
